# experimental target: T1, recombinant human FGFR1c Fc fusion (human, UniProt P11362 141-376)
# T1 construct: also called FGFR1IIIc; not shown: Fc part of the FGFR-Fc fusion
# T1 sequence: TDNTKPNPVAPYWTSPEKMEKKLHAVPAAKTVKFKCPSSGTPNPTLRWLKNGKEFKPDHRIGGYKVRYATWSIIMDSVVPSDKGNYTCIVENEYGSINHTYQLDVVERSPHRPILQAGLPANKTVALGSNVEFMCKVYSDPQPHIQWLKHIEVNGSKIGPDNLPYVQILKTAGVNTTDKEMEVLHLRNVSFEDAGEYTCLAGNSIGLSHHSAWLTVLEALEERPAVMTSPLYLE
# assay explanation: ELISA, scFv on coated FGFR-Fc
recorded endpoint: pEC50
Notebook: values listed as pEC50 are -log10 of the concentration (mol/L).

Some solved cases for reference:
// pEC50 value for Ab4 (scFv format) (scFv, also called FGF#10) scFv: EVQLLESGGGVVQPGRSLRLSCAASGFTFSSYAMHWVRQAPGKGLEWVALISYDGSNKYYADSVKGRFTISRDNSKNTLYLQMNSLRAEDTAIYYCVRGAGRGYTYGPDGFDIWGQGTMVTVSSASTGGGSGGGGSDIVMTQTPLSLSVTPGQPASIFCKSSQSLIFGDGKTYLYWYLQKPGQPPRLLIYQVSNRFSGVPDRFSGSGAGTDFTLKISRVEAEDVGVYYCMQAKQFPWTFGQGTKLEIKRTVAAPSHHHHHH : 9.61

// pEC50 value for Ab14 (scFv format) (scFv, also called FGF#24) scFv: EVQLVETGGGLIQPGGSLRLSCVASGFTVSSNYMSWVRQAPGKGLEWVSVIFSDGTTYYADSVKGRFTISRDNSKNTLYLQMNSLKTEDTAVYYCVAGPANGAYDIWGQGTMVTVSSASTGGGSGGGGSNIQMTQSPSILSASVGDRVTITCRASQSISNWLAWYQQKPGKAPKLLIFRASTLESGVPSRFSGSGSGAEFNLTISSLQPDDFATYYCQQYNVYSGTFGQGTKVEIKRTVAAPSHHHHHH : 6.89

# input for lookup
// pEC50 value for Ab7 (scFv format) (scFv, also called FGF#51) scFv: QVQLVESGGGVVQPGRSLRLSCAASGFTFSGYAIHWVRQAPGKGLEWVALISYDGSNKYYADSAKGRFTISRDNSKNTLSLQMNSLRVEDTAIYYCVRGAGRGYTYGPDGFDIWGQGTMVTVSSASTGGGGSGGGGSGGGGSGGGGSDIVMTQTPLSSPVTLGQPASISCRSSESLVYRDGNTYLSWLHQRPGQSPRLLIYKVSNRFSGVPDRFSGSGAGTDFTLKISRVEAEDVGVYFCMQATQFPWTFGQGTKVEIKRTVAAPSHHHHHH : 9.70
